As shown below, each of these compounds has a reported IC50 value.
Target: GST fusion protein containing the Met kinase domain (Homo sapiens)
Construct: Purified GST fusion protein containing the Met kinase domain, Sugen, Inc
Sequence (P08581 1078-1345 limits assumed): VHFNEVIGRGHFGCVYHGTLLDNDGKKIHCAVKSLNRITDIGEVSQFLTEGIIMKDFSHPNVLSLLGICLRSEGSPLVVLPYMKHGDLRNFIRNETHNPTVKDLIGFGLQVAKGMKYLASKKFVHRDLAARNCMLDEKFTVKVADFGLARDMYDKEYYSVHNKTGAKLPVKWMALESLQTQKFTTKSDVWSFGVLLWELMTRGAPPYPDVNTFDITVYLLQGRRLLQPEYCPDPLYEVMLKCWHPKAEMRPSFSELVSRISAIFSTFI
Assay: MET Transphosphorylation Assay (ELISA, poly(Glu,Tyr) 4:1 substrate)
Settings: met transphosphorylation of poly(glutamic acid:tyrosine 4:1) substrate; two values in a cell separated by '/'

- Compound: "O=C(Cc1ccc(O)cc1)N/N=C1\\C(=O)Nc2ccc(Br)cc21 [II-20]"
  Value operator: "="
  IC50 (nM): 24
- Compound: "O=C(Cc1ccccc1)N/N=C1\\C(=O)Nc2c(Cl)ccc(Cl)c21 [II-75]"
  Value operator: "="
  IC50 (nM): 90
- Compound: "CC(C(=O)N/N=C1\\C(=O)Nc2ccccc21)c1ccc(O)cc1 (stereo not shown) [II-18]"
  Value operator: "="
  IC50 (nM): 30
- Compound: "Cc1ccc(C)c2c1NC(=O)/C2=N\\NC(=O)Cc1ccc(O)cc1 [II-31]"
  Value operator: "="
  IC50 (nM): 15
- Compound: "Nc1ccc(CC(=O)N/N=C2\\C(=O)Nc3ccccc32)cc1 [II-22]"
  Value operator: ">"
  IC50 (nM): 20000
- Compound: "Cc1cn(CC(=O)N/N=C2\\C(=O)Nc3ccccc32)c(=O)[nH]c1=O [II-73]"
  Value operator: ">"
  IC50 (nM): 20000
- Compound: "O=C(Cc1cccc(Cl)c1)N/N=C1\\C(=O)Nc2ccc(Br)cc21 [II-15]"
  Value operator: "="
  IC50 (nM): 13700
- Compound: "O=C(Cc1ccccc1Cl)N/N=C1\\C(=O)Nc2ccccc21 [II-13]"
  Value operator: ">"
  IC50 (nM): 20000
- Compound: "CC(C(=O)N/N=C1\\C(=O)Nc2ccc(NC(=O)CN3CCCC3)cc21)c1ccc(F)cc1 (stereo not shown) [Example I-55]"
  Value operator: "="
  IC50 (nM): 6160
- Compound: "O=C(Cc1cc(=O)[nH]c(=O)[nH]1)N/N=C1\\C(=O)Nc2c(Cl)ccc(Cl)c21 [II-82]"
  Value operator: ">"
  IC50 (nM): 20000
- Compound: "O=C(Cc1ccc(O)cc1)N/N=C1\\C(=O)Nc2ncccc21 [Example I-49]"
  Value operator: "="
  IC50 (nM): 230
- Compound: "O=C(Cc1ccc(F)cc1)N/N=C1\\C(=O)Nc2ccc(C(=O)N3CCC(NC4CC4)CC3)c(Cl)c21 [Example I-20]"
  Value operator: "="
  IC50 (nM): 430
- Compound: "CN(C)CC#Cc1ccc2c(c1)/C(=N/NC(=O)Cc1ccc(F)cc1)C(=O)N2 [Example I-50]"
  Value operator: "="
  IC50 (nM): 11900
- Compound: "O=C(Cc1ccc(O)c(Br)c1)N/N=C1\\C(=O)Nc2ccccc21 [II-101]"
  Value operator: "="
  IC50 (nM): 54
- Compound: "O=C(Cc1ccc(O)cc1)N/N=C1\\C(=O)Nc2c(C(=O)O)cccc21 [Example I-47]"
  Value operator: "="
  IC50 (nM): 14600
- Compound: "CC(C)(C(=O)N/N=C1\\C(=O)Nc2ccc(C(=O)O)c(Cl)c21)c1ccc(Cl)cc1 [II-92]"
  Value operator: ">"
  IC50 (nM): 20000
- Compound: "O=C(Cc1cccc(Cl)c1)N/N=C1\\C(=O)Nc2ccccc21 [II-14]"
  Value operator: "="
  IC50 (nM): 5680
- Compound: "O=C(Cc1cc(O)[nH]n1)N/N=C1\\C(=O)Nc2c(Cl)ccc(Cl)c21 [II-87]"
  Value operator: "="
  IC50 (nM): 630
- Compound: "O=C(Cc1ccc(O)c([N+](=O)[O-])c1)N/N=C1\\C(=O)Nc2ccccc21 [II-46]"
  Value operator: "="
  IC50 (nM): 610
- Compound: "N#Cc1cc(CC(=O)N/N=C2\\C(=O)Nc3ccc(C(=O)O)c(Cl)c32)ccc1O [II-111]"
  Value operator: "="
  IC50 (nM): 3340
- Compound: "O=C(Cc1ccc2c(c1)OCO2)N/N=C1\\C(=O)Nc2ccc(S(=O)(=O)NCCN3CCOCC3)cc21 [Example I-31]"
  Value operator: "="
  IC50 (nM): 320
- Compound: "O=C1Nc2ccccc2/C1=N/NC(=O)C(F)(F)c1ccc(F)cc1 [Example I-32]"
  Value operator: ">"
  IC50 (nM): 20000
- Compound: "CCOc1ccc(CC(=O)N/N=C2\\C(=O)Nc3ccccc32)cc1 [II-10]"
  Value operator: ">"
  IC50 (nM): 20000
- Compound: "Cn1cc(CC(=O)N/N=C2\\C(=O)Nc3ccc(C(=O)N4CCC(NC5CC5)CC4)c(Cl)c32)ccc1=O [Example I-35]"
  Value operator: "="
  IC50 (nM): 1230
- Compound: "O=C(Cc1ccccc1)N/N=C1\\C(=O)Nc2ccccc21 [II-6]"
  Value operator: ">"
  IC50 (nM): 20000
- Compound: "O=C(CCc1ccc(O)cc1)N/N=C1\\C(=O)Nc2cccc(Cl)c21 [II-83]"
  Value operator: "="
  IC50 (nM): 81
- Compound: "COc1cccc2c1NC(=O)/C2=N\\NC(=O)Cc1ccc(O)cc1 [II-60]"
  Value operator: "="
  IC50 (nM): 65
- Compound: "COc1ccc2c(c1Cl)/C(=N/NC(=O)Cc1ccc(O)cc1)C(=O)N2 [II-94]"
  Value operator: "="
  IC50 (nM): 21
- Compound: "O=C1Nc2ccccc2/C1=N/NC(=O)C(CO)c1ccccc1 (stereo not shown) [Example I-7]"
  Value operator: ">"
  IC50 (nM): 20000
- Compound: "COc1ccc(CC(=O)N/N=C2\\C(=O)Nc3c(Cl)ccc(Cl)c32)cc1C#N [II-106]"
  Value operator: ">"
  IC50 (nM): 20000
- Compound: "Cn1cc(CC(=O)N/N=C2\\C(=O)Nc3ccc(C(=O)O)c(Cl)c32)ccc1=O [Example I-34]"
  Value operator: "="
  IC50 (nM): 2080
- Compound: "Cc1ccc(C)c2c1NC(=O)/C2=N\\NC(=O)C1Cc2ccccc2C1 [Example I-58]"
  Value operator: ">"
  IC50 (nM): 20000
- Compound: "CS(=O)(=O)c1ccc(CC(=O)N/N=C2\\C(=O)Nc3ccccc32)cc1 [Example I-21]"
  Value operator: ">"
  IC50 (nM): 20000
- Compound: "COC(=O)c1ccc2c(c1)/C(=N/NC(=O)Cc1ccc(O)cc1)C(=O)N2 [Example I-11]"
  Value operator: "="
  IC50 (nM): 43
- Compound: "Cc1ccc(C)c2c1NC(=O)/C2=N\\NC(=O)Cc1ccccc1 [II-85]"
  Value operator: "="
  IC50 (nM): 91
- Compound: "O=C1Nc2ccccc2/C1=N/NC(=O)C(O)c1ccc(O)cc1 (stereo not shown) [Example I-3]"
  Value operator: "="
  IC50 (nM): 10700
- Compound: "O=C(Cc1ccc(O)cc1)N/N=C1\\C(=O)Nc2ccccc21 [II-23]"
  Value operator: "="
  IC50 (nM): 520
